test: Pharmacokinetic and bioavailability study of KD in beagle dogs (intravenous and oral)
Assay type: in vivo, beagle dog
measurement context: both sexes, beagle, dog, plasma, iv, 3 mg/kg, beagle dogs, intravenous, 3 mg/kg; read-out: mean AUC0-t (converted)
measure name: AUC(0-t) (ng·h/mL)
Give bare numbers, in ng·h/mL.

Param item = O=C1C[C@@H](O[C@@H]2O[C@H](CO)[C@@H](O)[C@H](O)[C@H]2O)CO1 [kinsenoside, Kinsenoside] ; retrieve measured AUC(0-t).
114

###

test: Pharmacokinetic and bioavailability study of KD in beagle dogs (intravenous and oral)
Format: in vivo, beagle dog
measurement context: both sexes, dog, plasma; beagle dogs, oral, 3 mg/kg
measure name: Cmax
Number first, unit second: that is the form wanted.

Param item = O=C1C[C@@H](O[C@@H]2O[C@H](CO)[C@@H](O)[C@H](O)[C@H]2O)CO1 [kinsenoside, Kinsenoside] ; retrieve measured Cmax.
965 ng/mL

Reference source for all entries: paper PMC6161302
